measurementTarget: SARS-CoV-2 spike on live SARS-CoV-2 virus (SARS-CoV-2, UniProt P0DTC2 14-1273)
measurementDescription: cell-based or functional assay

binder	EC50, µg/mL
variant 6-3 (Fc fusion) VHH: EVQLVESGGGLVQPGGSLRLSCAASGFTFSPSWMGWFRQAPGKEREFVATINEYGGRNYADSVKGRFTISADNSKNTAYLQMNSLKPEDTAVYYCARVDRDFDYWGQGTLVTVSS	0.06
variant 6-55 (Fc fusion) VHH: EVQLVESGGGLVQPGGSLRLSCAASGFTMSSSWMGWFRQAPGKEREFVARITSGGSTGYADSVKGRFTISADNSKNTAYLQMNSLKPEDTAVYYCASVDGYFDYWGQGTLVTVSS	0.21
variant 6-78 (Fc fusion) VHH: EVQLVESGGGLVQPGGSLRLSCAASGRTYDAMGWFRQAPGKEREFVASVTSGGYTHYADSVKGRFTISADNSKNTAYLQMNSLKPEDTAVYYCAKFGRKIVGATELDYWGQGTLVTVSS	8.26
variant 6-20 (Fc fusion) VHH: EVQLVESGGGLVQPGGSLRLSCAASGSTLPYHAMGWFRQAPGKEREFVAAITWNGASTSYADSVKGRFTISADNSKNTAYLQMNSLKPEDTAVYYCARDRYYDTSASYFESETWGQGTLVTVSS	5.03
variant 6-63 (Fc fusion, also called VHH nanobody 6-63) VHH: EVQLVESGGGLVQPGGSLRLSCAASGQTFNMGWFRQAPGKEREFVAAIGSGGSTSYADSVKGRFTISADNSKNTAYLQMNSLKPEDTAVYYCWRLGNDYFDYWGQGTLVTVSS	0.06
variant 5-34 (Fc fusion) VHH: EVQLVESGGGLVQPGGSLRLSCAASGRTFSRYIMGWFRQAPGKEREFVAAISWSGGDNTYYADSVKGRFTISADNSKNTAYLQMNSLKPEDTAVYYCAAYRIVVGGTSPGDWRWGQGTLVTVSS	0.54
variant 6-76 (Fc fusion) VHH: EVQLVESGGGLVQPGGSLRLSCAASGLAFDFDGMGWFRQAPGKEREGVAAINSGGSTYYADSVKGRFTISADNSKNTAYLQMNSLKPEDTAVYYCARFFRAHDYWGQGTLVTVSS	1.08
variant 5-1 (Fc fusion) VHH: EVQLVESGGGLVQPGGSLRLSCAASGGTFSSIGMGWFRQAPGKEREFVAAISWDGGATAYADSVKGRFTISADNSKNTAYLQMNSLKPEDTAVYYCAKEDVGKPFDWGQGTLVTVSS	0.1
variant 6-73 (Fc fusion) VHH: EVQLVESGGGLVQPGGSLRLSCAASGHTFSGYAMGWFRQAPGKEREFVAVITREGSTYYADSVKGRFTISADNSKNTAYLQMNSLKPEDTAVYYCARLGGEGFDYWGQGTLVTVSS	1.46
variant 5-20 (Fc fusion) VHH: EVQLVESGGGLVQPGGSLRLSCAASGRTIVPYTMGWFRQAPGKERELVAAISPSAFTEYADSVKGRFTISADNSKNTAYLQMNSLKPEDTAVYYCAARRWGYDWGQGTLVTVSS	0.27
variant 6-26 (Fc fusion) VHH: EVQLVESGGGLVQPGGSLRLSCAASGDTFSTSWMGWFRQAPGKEREFVATINTGGGTNYADSVKGRFTISADNSKNTAYLQMNSLKPEDTAVYYCARVTTSFDYWGQGTLVTVSS	2.97
variant 6-60 (Fc fusion) VHH: EVQLVESGGGLVQPGGSLRLSCAASGDTYGSYWMGWFRQAPGKEREFVATISQSGAATAYADSVKGRFTISADNSKNTAYLQMNSLKPEDTAVYYCAGLLRYSGTYYDAFDVWGQGTLVTVSS	0.15
variant 6-85 (Fc fusion) VHH: EVQLVESGGGLVQPGGSLRLSCAASGGTFSVFAMGWFRQAPGKEREFVSAINWSGGSLLYADSVKGRFTISADNSKNTAYLQMNSLKPEDTAVYYCALFGDFDYWGQGTLVTVSS	0.84
